assay: soluble on expression in E. coli; label from the status in PepcDB or PDB records

- Seq Text: "MGHHHHHHSHMKESAHLAISWLRSNAKKYQLTNAFGSFDLLDNTDIHLHFPAGAVTKDGPSAGVTIVTCLASLFSGRLVRSDVAMTGEITLRGLVLPVGGIKDKVLAAHRAGLKQVIIPRRNEKDLEGIPGNVRQDLSFVTASCLDEVLNAAFDGGFTVKTRPGLLNSKL"
  soluble on expression in E. coli: "not soluble"
- Seq Text: "MGSDKIHHHHHHMGLLTNLKDSISRAASTLFSEEDPKRIGIYGPPNAGKTTLANRIARDWTGDAVGPESHVPHETRRARRKENVEIERDGKKVTIDIVDTPGVTTKVDYTEFLEHDMEKDDAVRRSREATEGVAEAMHWLREDVDGVIYVLDSATDPFTQVNTMLIGIIESQDLPVLILANKIDLEESSVQRIRNAYPQHETIPLSALEGDNMDEVYDKIAEYFG"
  soluble on expression in E. coli: "not soluble"
